target: YES1 kinase (Homo sapiens); assay: YES1 kinase inhibition, ADP Glo assay (Promega); assay type: biochemical; details: compound 1 nM; read-out: YES1 enzyme, % inhibition, 1 nM
Sequence (P07947 whole entry): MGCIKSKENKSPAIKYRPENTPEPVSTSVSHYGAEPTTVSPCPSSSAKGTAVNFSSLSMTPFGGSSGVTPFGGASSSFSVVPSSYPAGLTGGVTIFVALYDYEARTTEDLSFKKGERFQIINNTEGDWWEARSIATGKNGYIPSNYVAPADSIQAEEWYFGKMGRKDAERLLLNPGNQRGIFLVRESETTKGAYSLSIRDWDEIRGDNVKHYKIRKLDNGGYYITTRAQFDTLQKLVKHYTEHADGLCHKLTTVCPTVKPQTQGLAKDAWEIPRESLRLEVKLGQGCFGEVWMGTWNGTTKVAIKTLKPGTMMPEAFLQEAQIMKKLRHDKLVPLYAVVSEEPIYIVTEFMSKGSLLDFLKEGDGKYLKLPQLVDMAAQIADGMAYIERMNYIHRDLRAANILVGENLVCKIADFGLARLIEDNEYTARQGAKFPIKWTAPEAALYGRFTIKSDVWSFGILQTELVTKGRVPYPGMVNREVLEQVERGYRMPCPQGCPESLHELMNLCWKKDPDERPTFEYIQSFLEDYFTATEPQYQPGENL
Kindly supply the reported inhibition at 0.001 µM values for the records listed here.
# value in %; strip the unit string

Summary for this molecule, "COc1cc(-c2cc(N3CCC(CCN(C)C)CC3)n3ncnc(N)c23)ccc1NC(=O)OC(C)(C)C" : inhibition at 0.001 µM is 37

Summary for this molecule, "COc1cc(-c2cc(N3CCC(N)(C(F)(F)F)CC3)n3ncnc(N)c23)ccc1NC(=O)OC(C)(C)C" : inhibition at 0.001 µM is 14

Summary for this molecule, COc1cc(-c2cc(N3CCC(CN)C(C)(C)C3)n3ncnc(N)c23)ccc1NC(=O)OC(C)(C)C (stereo not shown) : inhibition at 0.001 µM is 33

Summary for this molecule, "COc1cc(-c2cc(N3CCC(O)CC3)n3ncnc(N)c23)ccc1NC(=O)OC(C)(C)C" : inhibition at 0.001 µM is 12

The reported measurements were obtained from patent US20260297095A1.
